System: Phakopsora pachyrhizi containing the amino acid substitution F129L in the mitochondrial cytochrome b protein
Experiment: Use Example 1: protective control of soybean rust on soybeans (PHAKPA P2)
Format: in vivo
Conditions: inoculated 2 days after spraying, 4 ppm, % diseased leaf area
# % PHAKPA (F129L) Disease level P2 at 4 ppm per record follows
Dear colleague, please return just the value in %, with no unit written.

CNC(=O)/C(=N/OC)c1cccc(Cl)c1CO/N=C(\COC)c1cccc(F)c1 [compound 41]    3
CNC(=O)/C(=N/OC)c1cccc(Cl)c1CO/N=C(\COC)c1c(F)ccc(F)c1F [compound 112]    8
CCOC/C(=N\OCc1c(Cl)cccc1/C(=N\OC)C(=O)OC)c1cccc(Cl)c1 [compound 33]    93
COC/C(=N\OCc1c(Cl)cccc1/C(=N\OC)C(=O)OC)c1ccc(Cl)cc1F [compound 104]    42
CO/C=C(/C(=O)OC)c1cccc(Br)c1CO/N=C(\COC)c1c(F)cc(F)cc1F [compound 58]    2

Lookup: Specify % PHAKPA (F129L) Disease level P2 at 4 ppm for CO/C=C(/C(=O)OC)c1cccc(Cl)c1CO/N=C(/C#Cc1ccc(F)cc1)COC [compound 7] and stop.
Found: 2

Lookup: Specify % PHAKPA (F129L) Disease level P2 at 4 ppm for CO/C=C(/C(=O)OC)c1cccc(Cl)c1CO/N=C(\COC)c1ccc(F)cn1 [compound 131] and stop.
Found: 1

Lookup: Specify % PHAKPA (F129L) Disease level P2 at 4 ppm for CNC(=O)/C(=N/OC)c1cccc(Cl)c1CO/N=C(\COC)c1cc(F)c(F)c(F)c1 [compound 74] and stop.
Found: 12
